# experimental_target: Human Tyk2 kinase domain (Homo sapiens (Human))
# Sequence (P29597 886-1187): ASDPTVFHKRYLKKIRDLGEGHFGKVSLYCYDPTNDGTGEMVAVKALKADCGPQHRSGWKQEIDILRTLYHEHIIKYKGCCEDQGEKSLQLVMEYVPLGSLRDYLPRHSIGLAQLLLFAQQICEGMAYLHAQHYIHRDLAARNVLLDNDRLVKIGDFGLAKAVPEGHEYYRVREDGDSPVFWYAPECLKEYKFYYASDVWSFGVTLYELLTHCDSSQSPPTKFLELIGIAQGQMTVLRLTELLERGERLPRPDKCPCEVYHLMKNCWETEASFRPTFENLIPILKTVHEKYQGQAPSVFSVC
pIC50: −log10 of the molar value.
result_type: pIC50

1. CCC(CC)n1cc(-c2nc(-c3cnn(C4CN(C(=O)CO)C4)c3)cn3nccc23)cn1 [compound 174] : 7.00 to 8.00
2. CCC[C@H](C)n1cc(-c2nc(-c3cnn(C[C@@H](O)CO)c3)cn3nccc23)cn1 [Example 72] : 6.00 to 7.00
3. CCC(CC)n1cc(-c2nc(-c3cnn(C4CN(P(=O)(N(C)C)N(C)C)C4)c3)cn3nccc23)cn1 [Example 41] : 7.00 to 8.00
4. CCC(CC)n1cc(-c2nc(-c3cnn([C@@H](C)[C@H](O)CO)c3)cn3nccc23)cn1 [Example 89] : 7.00 to 8.00
